The reported measurements were obtained from paper PMC5789083.

# Tested on: Pseudomonas aeruginosa and MRPA strains
# ASSAY NOTES: microbe, parasite or virus in culture
# Assay type: cell-based
# CONDITION DETAILS: P. aeruginosa 1162 (multidrug-resistant); broth micro-dilution, 37 °C, 18–24 h, triplicate
# Description: Gram-negative (Pseudomonas aeruginosa ATCC 27853) bacterial strains were obtained from the ATCC (American Type Culture Collection; Manassas, VA, USA). […] We examined the activity of each peptide against both pseudomonas aeruginosa and multidrug-resistant strains. The minimal inhibitory concentrations (MICs) of peptides were determined using the broth micro-dilution assay as described previously. […]
Where no end group is shown, it is not given here.
QUANTITY NAME: MIC

[[record]]
substance = "ILGKLWEGVKSI-NH2 [Hp1404-T1]"
tested_target = "Pseudomonas aeruginosa and MRPA strains"
observed_measurement = ">25 µM"

[[record]]
substance = "ILKKLLEGVKSI-NH2 [Hp1404-T1b]"
tested_target = "Pseudomonas aeruginosa and MRPA strains"
observed_measurement = ">25 µM"


Requested read-out: MIC. Entry: ILKKLWEGVKSI-NH2 [Hp1404-T1a]
>25 µM
